Below, each entry is listed alongside its reported IC50.
- MEASUREMENT TARGET: yeast proteasome yβ2 subunit (Saccharomyces cerevisiae, UniProt P25043+P25451)
- Construct: measured using 8 μg/mL of purified yCP or iCP
- EXPERIMENT DESCRIPTION: Subunit selectivity, purified yeast proteasome yβ2
- Type: biochemical
- MEASUREMENT CONDITIONS: 8 μg/mL purified yCP; ± SD; read-out: yβ2 IC50

Please review the following examples before continuing.
{"COMPOUND": "CC(C)[C@H](NC(=O)[C@@H]1OC(=O)[C@H]1C(C)C)C(=O)N[C@H](C(=O)OCc1ccccc1)C(C)C [Compound 1]", "OBSERVED RESULT": "14.6 µM"}
{"COMPOUND": "CC[C@H](C)[C@@H]1C(=O)O[C@H]1C(=O)N[C@H](C(=O)N[C@@H](COCc1ccccc1)C(=O)NCc1ccccc1)C(C)C [Compound 12a]", "OBSERVED RESULT": "13.6 µM"}
{"COMPOUND": "C=CCOC(=O)[C@@H](NC(=O)[C@@H](NC(=O)[C@@H]1OC(=O)[C@H]1[C@@H](C)CC)C(C)C)C(C)C [Compound 11a]", "OBSERVED RESULT": "> 10 µM"}

Here is the next item to consider.
-- ask Observed IC50 on yeast proteasome yβ2 subunit (Saccharomyces cerevisiae, UniProt P25043+P25451) for CC(C)C1C(=O)OC1C(=O)N[C@H](C(=O)N[C@H](C(=O)O)C(C)C)C(C)C (stereo partly shown) [CysB, Cystargolide B, reference compound] , please.
-- reply 61.6 µM

----------
Below, each entry is listed alongside its reported IC50.
- Test system: RPMI 8226 cells
- EXPERIMENT DESCRIPTION: MTT assay cytotoxicity RPMI 8226
- MEASUREMENT CONDITIONS: Homo sapiens, RPMI-8226, 48 h, read-out: Cytotoxicity RPMI 8226 IC50
Field format: number, assumed nM, no unit text.

Please review the following examples before continuing.
{"COMPOUND": "CC[C@H](C)[C@@H]1C(=O)O[C@H]1C(=O)N[C@H](C(=O)N[C@H](C(=O)OCc1ccccc1)C(C)(C)C)C(C)(C)C [Compound 10g]", "READING UNIT": "nM", "OBSERVED RESULT": 866}
{"COMPOUND": "CC(C)[C@H](NC(=O)[C@@H]1OC(=O)[C@H]1C1CC1)C(=O)N[C@H](C(=O)OCc1ccccc1)C(C)C [Compound 9a]", "READING UNIT": "nM", "OBSERVED RESULT": 72000}
{"COMPOUND": "CC(C)[C@H](NC(=O)[C@@H]1OC(=O)[C@H]1C1CCCC1)C(=O)N[C@H](C(=O)OCc1ccccc1)C(C)C [Compound 9c]", "READING UNIT": "nM", "OBSERVED RESULT": 1980}

-- ask Fill in the blank: the reported IC50 of CC[C@H](C)[C@@H]1C(=O)O[C@H]1C(=O)N[C@H](C(=O)N[C@H](C(=O)OC)C(C)C)C(C)C [Compound 11h] is ____.
-- reply 293

-- ask Fill in the blank: the reported IC50 of CC(C)C[C@@H]1C(=O)O[C@H]1C(=O)N[C@H](C(=O)N[C@H](C(=O)OCc1ccccc1)C(C)C)C(C)C [Compound 9d] is ____.
-- reply 19900

----------
- Test system: RPMI 8226 cells
Below, each entry is listed alongside its reported pIC50.
A value of pIC50 is the negative decimal logarithm of a concentration given in moles per litre.

Please review the following examples before continuing.
{"MOLECULE": "CC[C@H](C)[C@@H]1C(=O)O[C@H]1C(=O)N[C@H](C(=O)N[C@H](C(=O)OCc1ccccc1)C(C)C)C(C)(C)C [Compound 10e]", "MEASUREMENT TARGET": "RPMI 8226 cells", "pIC50": 5.98}
{"MOLECULE": "CC[C@H](C)[C@@H]1C(=O)O[C@H]1C(=O)N[C@@H](CC(C)C)C(=O)N[C@H](C(=O)OCc1ccccc1)C(C)C [Compound 10h]", "MEASUREMENT TARGET": "RPMI 8226 cells", "pIC50": 5.75}
{"MOLECULE": "C=CCCOC(=O)[C@@H](NC(=O)[C@@H](NC(=O)[C@@H]1OC(=O)[C@H]1[C@@H](C)CC)C(C)C)C(C)C [Compound 11g]", "MEASUREMENT TARGET": "RPMI 8226 cells", "pIC50": 6.58}
{"MOLECULE": "CC[C@H](C)[C@@H]1C(=O)O[C@H]1C(=O)N[C@H](C(=O)N[C@H](C(=O)OCC(C)C)C(C)C)C(C)C [Compound 11d]", "MEASUREMENT TARGET": "RPMI 8226 cells", "pIC50": 7.00}
{"MOLECULE": "CC[C@H](C)[C@@H]1C(=O)O[C@H]1C(=O)N[C@H](C(=O)N[C@H](C(=O)OCC1CCCCC1)C(C)C)C(C)C [Compound 11c]", "MEASUREMENT TARGET": "RPMI 8226 cells", "pIC50": 6.34}

-- ask Fill in the blank: the reported pIC50 of CC[C@H](C)[C@@H]1C(=O)O[C@H]1C(=O)N[C@H](C(=O)N[C@@H](CC(C)C)C(=O)OCc1ccccc1)C(C)C [Compound 10i] is ____.
-- reply 6.81

-- ask Fill in the blank: the reported pIC50 of CC[C@H](C)[C@@H]1C(=O)O[C@H]1C(=O)N[C@H](C(=O)N[C@H](C(=O)OCc1ccc(Cl)cc1)C(C)C)C(C)C [Compound 11b] is ____.
-- reply 7.06

----------
- MEASUREMENT TARGET: yeast proteasome yβ5 subunit (Saccharomyces cerevisiae, UniProt P23724+P30656)
- Construct: measured using 8 μg/mL of purified yCP or iCP
- EXPERIMENT DESCRIPTION: Subunit selectivity, purified yeast proteasome yβ5
- Assay type: biochemical
- MEASUREMENT CONDITIONS: 8 μg/mL purified yCP; ± SD; read-out: yβ5 IC50
Below, each entry is listed alongside its reported pIC50.
A value of pIC50 is the negative decimal logarithm of a concentration given in moles per litre.

Please review the following examples before continuing.
{"COMPOUND": "CC(C)[C@H](NC(=O)[C@@H]1OC(=O)[C@H]1C(C)C)C(=O)N[C@H](C(=O)OCc1ccccc1)C(C)C", "EXPERIMENTAL ENDPOINT": "pIC50", "OBSERVED RESULT": 7.43}
{"COMPOUND": "C=CCOC(=O)[C@@H](NC(=O)[C@@H](NC(=O)[C@@H]1OC(=O)[C@H]1[C@@H](C)CC)C(C)C)C(C)C [Compound 11a]", "EXPERIMENTAL ENDPOINT": "pIC50", "OBSERVED RESULT": 7.71}

Here is the next item to consider.
-- ask Fill in the blank: the reported pIC50 of CC[C@H](C)[C@@H]1C(=O)O[C@H]1C(=O)N[C@H](C(=O)N[C@@H](COCc1ccccc1)C(=O)NCc1ccccc1)C(C)C [Compound 12a] is ____.
-- reply 8.09

----------
Below, each entry is listed alongside its reported IC50.
- MEASUREMENT TARGET: chymotrypsin-like activity of the 26S proteasome (Homo sapiens)
- Construct: endogenous in cells; host or cells: Jurkat (ATCC TIB-152, E6-1 clone) cell lysate
- Sequence (P28074 60-263): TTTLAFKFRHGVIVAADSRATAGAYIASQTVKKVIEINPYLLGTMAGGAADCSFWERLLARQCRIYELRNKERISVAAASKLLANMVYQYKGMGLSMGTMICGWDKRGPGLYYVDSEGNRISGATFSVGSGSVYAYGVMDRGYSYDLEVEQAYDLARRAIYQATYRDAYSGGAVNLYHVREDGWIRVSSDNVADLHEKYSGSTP
- EXPERIMENT DESCRIPTION: Proteasome assay, chymotrypsin-like (ChT-L) activity, Suc-LLVY-AMC, Jurkat cell lysate
- Format: biochemical
- MEASUREMENT CONDITIONS: Table 4, P4 analogues; ± S.D.; read-out: Proteasome Inhibition ChT-like IC50

Please review the following examples before continuing.
{"COMPOUND": "CC[C@H](C)[C@@H]1C(=O)O[C@H]1C(=O)N[C@H](C(=O)N[C@H](C(=O)NCc1ccccc1)C(C)C)C(C)C [Compound 11e]", "IC50": "4.5 nM"}
{"COMPOUND": "C=CCCOC(=O)[C@@H](NC(=O)[C@@H](NC(=O)[C@@H]1OC(=O)[C@H]1[C@@H](C)CC)C(C)C)C(C)C [Compound 11g]", "IC50": "8.7 nM"}

-- ask Fill in the blank: the reported IC50 of CC[C@H](C)[C@@H]1C(=O)O[C@H]1C(=O)N[C@H](C(=O)N[C@H](C(=O)OCC(C)C)C(C)C)C(C)C [Compound 11d] is ____.
-- reply 9.4 nM

-- ask Fill in the blank: the reported IC50 of CC[C@H](C)[C@@H]1C(=O)O[C@H]1C(=O)N[C@H](C(=O)N[C@H](C(=O)OC)C(C)C)C(C)C [Compound 11h] is ____.
-- reply 24.3 nM

-- ask Fill in the blank: the reported IC50 of CC[C@H](C)[C@@H]1C(=O)O[C@H]1C(=O)N[C@H](C(=O)N[C@H](C(=O)OCC1CCCCC1)C(C)C)C(C)C [Compound 11c] is ____.
-- reply 13 nM

-- ask Fill in the blank: the reported IC50 of CC[C@H](C)[C@@H]1C(=O)O[C@H]1C(=O)N[C@H](C(=O)N[C@H](C(=O)OCc1ccc(OC)cc1)C(C)C)C(C)C [Compound 11f] is ____.
-- reply 9 nM

-- ask Fill in the blank: the reported IC50 of C=CCOC(=O)[C@@H](NC(=O)[C@@H](NC(=O)[C@@H]1OC(=O)[C@H]1[C@@H](C)CC)C(C)C)C(C)C [Compound 11a] is ____.
-- reply 11.6 nM

-- ask Fill in the blank: the reported IC50 of CC[C@H](C)[C@@H]1C(=O)O[C@H]1C(=O)N[C@H](C(=O)N[C@H](C(=O)OCc1ccc(Cl)cc1)C(C)C)C(C)C [Compound 11b] is ____.
-- reply 10.2 nM
